Target: HIV-1 Env of AC10.29 (HIV-1)
Assay: cell-based or functional assay
TEST_READOUT: neutralization IC50

- CAP256-VRC26.03 (antibody, V domains shown) VH: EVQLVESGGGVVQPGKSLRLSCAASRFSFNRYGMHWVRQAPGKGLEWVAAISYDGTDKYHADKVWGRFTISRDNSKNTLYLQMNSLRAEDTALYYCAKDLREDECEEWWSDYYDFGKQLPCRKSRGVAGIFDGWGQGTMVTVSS VL: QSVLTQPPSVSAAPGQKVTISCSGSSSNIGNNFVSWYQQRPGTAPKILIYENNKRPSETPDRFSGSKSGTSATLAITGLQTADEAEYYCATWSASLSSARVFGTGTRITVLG: > 50 µg/mL
- CAP256-VRC26.04 (antibody, V domains shown) VH: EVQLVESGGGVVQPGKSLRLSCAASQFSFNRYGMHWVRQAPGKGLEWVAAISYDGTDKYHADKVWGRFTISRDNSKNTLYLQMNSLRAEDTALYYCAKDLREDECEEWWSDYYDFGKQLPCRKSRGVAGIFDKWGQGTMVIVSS VL: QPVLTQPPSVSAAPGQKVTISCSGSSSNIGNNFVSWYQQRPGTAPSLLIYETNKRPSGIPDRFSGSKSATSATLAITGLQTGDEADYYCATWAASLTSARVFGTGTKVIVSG: > 50 µg/mL
